Molecular target: ABCB1 (Homo sapiens, UniProt P08183)
Sequence (P08183 whole entry): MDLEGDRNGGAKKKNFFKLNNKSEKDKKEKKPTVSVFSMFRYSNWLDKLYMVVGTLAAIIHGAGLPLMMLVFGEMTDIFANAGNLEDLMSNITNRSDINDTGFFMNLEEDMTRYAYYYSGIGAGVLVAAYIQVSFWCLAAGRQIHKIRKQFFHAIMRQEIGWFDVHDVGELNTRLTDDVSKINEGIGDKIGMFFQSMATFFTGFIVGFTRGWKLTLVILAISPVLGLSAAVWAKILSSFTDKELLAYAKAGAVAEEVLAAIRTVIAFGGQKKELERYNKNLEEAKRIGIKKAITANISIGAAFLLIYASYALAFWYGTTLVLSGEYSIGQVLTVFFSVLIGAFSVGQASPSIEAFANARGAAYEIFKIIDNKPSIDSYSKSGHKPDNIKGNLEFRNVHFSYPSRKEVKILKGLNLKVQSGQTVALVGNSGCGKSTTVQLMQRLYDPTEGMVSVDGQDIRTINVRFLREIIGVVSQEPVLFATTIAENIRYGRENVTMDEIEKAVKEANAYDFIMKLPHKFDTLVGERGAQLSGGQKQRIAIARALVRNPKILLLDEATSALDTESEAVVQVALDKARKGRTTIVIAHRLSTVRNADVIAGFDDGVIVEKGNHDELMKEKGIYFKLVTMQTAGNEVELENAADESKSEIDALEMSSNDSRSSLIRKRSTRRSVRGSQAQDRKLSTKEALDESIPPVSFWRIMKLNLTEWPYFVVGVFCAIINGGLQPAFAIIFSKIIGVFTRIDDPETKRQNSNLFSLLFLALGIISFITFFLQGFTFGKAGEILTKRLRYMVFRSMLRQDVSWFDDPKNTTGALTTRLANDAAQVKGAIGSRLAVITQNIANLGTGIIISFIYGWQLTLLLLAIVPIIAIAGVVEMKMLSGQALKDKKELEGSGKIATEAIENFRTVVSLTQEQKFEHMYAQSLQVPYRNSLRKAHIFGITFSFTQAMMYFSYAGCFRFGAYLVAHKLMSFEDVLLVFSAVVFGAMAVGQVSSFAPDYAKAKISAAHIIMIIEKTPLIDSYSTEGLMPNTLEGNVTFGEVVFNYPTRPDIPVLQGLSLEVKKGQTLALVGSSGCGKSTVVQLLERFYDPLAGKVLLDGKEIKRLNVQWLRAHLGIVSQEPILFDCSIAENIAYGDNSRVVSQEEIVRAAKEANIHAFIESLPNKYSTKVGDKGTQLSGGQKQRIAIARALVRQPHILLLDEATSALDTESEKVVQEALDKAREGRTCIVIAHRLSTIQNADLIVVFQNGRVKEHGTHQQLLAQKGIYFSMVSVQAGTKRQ
Test: EMHPS transport through the Caco-2 cells monolayer (ABCB1 substrate test)
Assay type: in vitro ADME
Design: Caco-2 cells were used to test the effect of EMHPS on the expression and activity of ABCB1; endogenous in cells; host or cells: Caco-2
Details: human; EMHPS 250 µM, Caco-2 monolayer, M ± SD; read-out: ER (Papp b-a/Papp a-b)

{"smilesRepr": "CCc1nc(C)ccc1O.O=C(O)CCC(=O)O", "systemName": "ABCB1 (Homo sapiens, UniProt P08183)", "efflux ratio at 180 min, 250 µM": 0.75}

* * *

Biological target: SLCO1B1 (Homo sapiens)
Assay: Inhibition of SLCO1B1-mediated uptake of atorvastatin in HEK293-SLCO1B1 cells
Quick reference: IC50 of the listed items.

{"smilesRepr": "CO[C@H]1/C=C/O[C@@]2(C)Oc3c(C)c(O)c4c(O)c(c(/C=N/N5CCN(C)CC5)c(O)c4c3C2=O)NC(=O)/C(C)=C\\C=C\\[C@H](C)[C@H](O)[C@@H](C)[C@@H](O)[C@@H](C)[C@H](OC(C)=O)[C@@H]1C", "valueUnits": "µM", "IC50": 2.51}
{"smilesRepr": "CCc1nc(C)ccc1O.O=C(O)CCC(=O)O", "valueUnits": "µM", "IC50": 12.1}

* * *

Molecular target: UniProtKB P08183

{"compound": "CCc1nc(C)ccc1O.O=C(O)CCC(=O)O [EMHPS]", "IC50 (µM)": 92}

* * *

Target: ABCB1 (Homo sapiens)
Test: EMHPS transport through the Caco-2 cells monolayer (ABCB1 substrate test)
Format: in vitro ADME
Set-up: Caco-2 cells were used to test the effect of EMHPS on the expression and activity of ABCB1; endogenous in cells; host or cells: Caco-2
Settings: human; EMHPS 250 µM, Caco-2 monolayer, M ± SD
readoutType: Papp B→A at 180 min, 250 µM (×10⁻⁶ cm/s)

{"smilesRepr": "CCc1nc(C)ccc1O.O=C(O)CCC(=O)O", "systemName": "ABCB1 (Homo sapiens)", "readoutType": "Papp B→A at 180 min, 250 µM", "valueUnits": "×10⁻⁶ cm/s", "numericValue": 16.5}

* * *

Target: UniProtKB P08183
Experiment: Effect on ABCB1-mediated transport of fexofenadine through the Caco-2 cells monolayer
Conditions: human, Caco-2 cell monolayer on Transwell inserts, probe fexofenadine 150 µmol/L
Method: Transport experiments were carried out in Transwell® systems (12 mm Transwell® with 0.4 µm Pore Polycarbonate Membrane Insert, Sterile, «Corning»). The Transwell® system consists of two chambers, apical and basolateral. […] The medium was changed every 2–3 days. […] The transepithelial electrical resistance (TEER) across the cell monolayers was monitored using a Millicell-ERS (electrical resistance system) to assess cell monolayer integrity. […]

{"smilesRepr": "CCc1nc(C)ccc1O.O=C(O)CCC(=O)O", "systemName": "UniProtKB P08183", "inhibition at 200 µM / %": 90.6}

* * *

Molecular target: ABCB1 (Homo sapiens, UniProt P08183)
Test: EMHPS transport through the Caco-2 cells monolayer (ABCB1 substrate test)
Format: in vitro ADME
Design: Caco-2 cells were used to test the effect of EMHPS on the expression and activity of ABCB1; endogenous in cells; host or cells: Caco-2
Conditions: human; EMHPS 10 µM, Caco-2 monolayer, M ± SD

{"smilesRepr": "CCc1nc(C)ccc1O.O=C(O)CCC(=O)O", "systemName": "ABCB1 (Homo sapiens, UniProt P08183)", "Papp B→A at 180 min, 10 µM [×10⁻⁶ cm/s]": 7.56}

* * *

Biological target: ABCB1 (Homo sapiens, UniProt P08183)
Assay: EMHPS transport through the Caco-2 cells monolayer (ABCB1 substrate test)
Type: in vitro ADME
Set-up: Caco-2 cells were used to test the effect of EMHPS on the expression and activity of ABCB1; endogenous in cells; host or cells: Caco-2
Conditions: human; EMHPS 250 µM, Caco-2 monolayer, M ± SD

{"compound": "CCc1nc(C)ccc1O.O=C(O)CCC(=O)O [EMHPS]", "Papp A→B at 180 min, 250 µM, ×10⁻⁶ cm/s": 22.3}

* * *

Target: SLCO1B1 (Homo sapiens)
Assay: Inhibition of SLCO1B1-mediated uptake of atorvastatin in HEK293-SLCO1B1 cells
Format: in vitro ADME
Design: The SLCO1B1 gene was obtained via synthesis and was cloned into the pEGFP-N1 vector; expressed in transfected cells; host or cells: HEK293
Conditions: human, HEK293-SLCO1B1 cells, pH 7.4, probe atorvastatin 1 µM

{"smilesRepr": "CCc1nc(C)ccc1O.O=C(O)CCC(=O)O", "valueUnits": "%", "inhibition at 500 µM": 90.6}
{"smilesRepr": "CO[C@H]1/C=C/O[C@@]2(C)Oc3c(C)c(O)c4c(O)c(c(/C=N/N5CCN(C)CC5)c(O)c4c3C2=O)NC(=O)/C(C)=C\\C=C\\[C@H](C)[C@H](O)[C@@H](C)[C@@H](O)[C@@H](C)[C@H](OC(C)=O)[C@@H]1C", "valueUnits": "%", "inhibition at 500 µM": 95.4}

* * *

Target: ABCB1 (Homo sapiens, UniProt P08183)
Assay: EMHPS transport through the Caco-2 cells monolayer (ABCB1 substrate test)
Assay type: in vitro ADME
Parameters: Caco-2 cells were used to test the effect of EMHPS on the expression and activity of ABCB1; endogenous in cells; host or cells: Caco-2
Settings: human; EMHPS 100 µM, Caco-2 monolayer, M ± SD
Description: The medium was changed every 2–3 days. The medium in chambers was removed and the cell monolayers were washed twice in warm (37 °C) transport medium (Hanks‚ balanced salt solution containing 10 mM HEPES and 1% dimethylsulfoxide (DMSO)). […] At 60, 120, and 180 min, 100 μL samples were taken from the recipient chamber and the drug concentration was analyzed. EMHPS transport was assessed in the absorptive (apical to basolateral, a-b) and secretory (b-a) directions. […]
readoutType: Papp B→A at 180 min, 100 µM (nm/s)

{"smilesRepr": "CCc1nc(C)ccc1O.O=C(O)CCC(=O)O", "readoutType": "Papp B→A at 180 min, 100 µM", "numericValue": 66.3}

* * *

Biological target: SLCO1B1 (Homo sapiens, UniProt Q9Y6L6)
Sequence (Q9Y6L6 whole entry): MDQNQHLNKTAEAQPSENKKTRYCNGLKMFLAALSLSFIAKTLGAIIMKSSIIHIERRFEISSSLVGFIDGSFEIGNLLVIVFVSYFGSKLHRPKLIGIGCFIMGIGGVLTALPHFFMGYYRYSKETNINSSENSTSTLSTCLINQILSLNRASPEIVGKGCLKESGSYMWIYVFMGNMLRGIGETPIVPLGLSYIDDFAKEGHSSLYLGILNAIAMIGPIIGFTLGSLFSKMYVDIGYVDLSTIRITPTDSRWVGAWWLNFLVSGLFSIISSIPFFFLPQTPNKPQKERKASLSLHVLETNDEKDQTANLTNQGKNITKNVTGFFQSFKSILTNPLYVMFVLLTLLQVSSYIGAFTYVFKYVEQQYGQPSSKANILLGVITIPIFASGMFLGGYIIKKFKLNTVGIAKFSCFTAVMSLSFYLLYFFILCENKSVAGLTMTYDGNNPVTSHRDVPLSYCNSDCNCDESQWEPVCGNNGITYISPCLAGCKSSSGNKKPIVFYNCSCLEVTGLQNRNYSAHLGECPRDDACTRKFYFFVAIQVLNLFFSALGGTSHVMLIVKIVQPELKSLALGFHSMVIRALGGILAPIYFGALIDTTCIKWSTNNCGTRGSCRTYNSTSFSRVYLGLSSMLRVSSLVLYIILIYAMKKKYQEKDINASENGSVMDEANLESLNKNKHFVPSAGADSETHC
Assay: Inhibition of SLCO1B1-mediated uptake of atorvastatin in HEK293-SLCO1B1 cells
Assay type: in vitro ADME
Design: The SLCO1B1 gene was obtained via synthesis and was cloned into the pEGFP-N1 vector; expressed in transfected cells; host or cells: HEK293
Conditions: human, HEK293-SLCO1B1 cells, pH 7.4, probe atorvastatin 1 µM

{"compound": "CCc1nc(C)ccc1O.O=C(O)CCC(=O)O [EMHPS]", "inhibition at 100 µM [%]": 64.7}
{"compound": "CO[C@H]1/C=C/O[C@@]2(C)Oc3c(C)c(O)c4c(O)c(c(/C=N/N5CCN(C)CC5)c(O)c4c3C2=O)NC(=O)/C(C)=C\\C=C\\[C@H](C)[C@H](O)[C@@H](C)[C@@H](O)[C@@H](C)[C@H](OC(C)=O)[C@@H]1C [rifampicin]", "inhibition at 100 µM [%]": 91.2}

* * *

Target: ABCB1 (Homo sapiens)
Experiment: EMHPS transport through the Caco-2 cells monolayer (ABCB1 substrate test)
Type: in vitro ADME
Parameters: Caco-2 cells were used to test the effect of EMHPS on the expression and activity of ABCB1; endogenous in cells; host or cells: Caco-2
Settings: human; EMHPS 10 µM, Caco-2 monolayer, M ± SD; read-out: ER (Papp b-a/Papp a-b)
Experimental: The medium was changed every 2–3 days. The medium in chambers was removed and the cell monolayers were washed twice in warm (37 °C) transport medium (Hanks‚ balanced salt solution containing 10 mM HEPES and 1% dimethylsulfoxide (DMSO)). […] At 60, 120, and 180 min, 100 μL samples were taken from the recipient chamber and the drug concentration was analyzed. EMHPS transport was assessed in the absorptive (apical to basolateral, a-b) and secretory (b-a) directions. […]

{"smilesRepr": "CCc1nc(C)ccc1O.O=C(O)CCC(=O)O", "efflux ratio at 180 min, 10 µM": 0.99}

* * *

Molecular target: ABCB1 (Homo sapiens, UniProt P08183)
Experiment: EMHPS transport through the Caco-2 cells monolayer (ABCB1 substrate test)
Assay type: in vitro ADME
Parameters: Caco-2 cells were used to test the effect of EMHPS on the expression and activity of ABCB1; endogenous in cells; host or cells: Caco-2
Conditions: human; EMHPS 100 µM, Caco-2 monolayer, M ± SD

{"compound": "CCc1nc(C)ccc1O.O=C(O)CCC(=O)O [EMHPS]", "Papp A→B at 180 min, 100 µM": "7.05 ×10⁻⁶ cm/s"}
